- measurement-notes: yeast display, Sf9 membrane polyspecificity reagent, FACS + sequencing; frameworks hold sequencing errors
measurement-kind: polyreactivity (PSR sort gate)

QVQLVESVGGLVQPGGSLRLSCAASGFTFRNNAMGWYRQSPVKERELVAAITGSGGRTYYTDSVKGRFTISSDNAKNTVYLQMHSLKPEDTAVYYCNTRYRGVHYTEMDYWGQGTQVSVSS ... high polyreactivity
QVQLVESGGGLVQAGGSLRLSCAASGFTFQYYAMGWYRQAPGKERELVAVISRSGGRTYYADSVKGRFTISRDNGKNTVYLQMISLKPEDTAVYYCNAQSYIPTTETYDYWGQGTQVTVSS ... high polyreactivity
QVQLVESGGGLVQAGGSLRLSCAASGSTFVYNAMGSYRQAPGKEREFVAAISGSGGSTYYADSVKGRFTISRDNAKNTVYLQMNSLKPEDTAVYYCATAGRYGLYRTYPYRSKYDYWGQGTQVTVSS ... high polyreactivity

----------
- measurement-notes: yeast display, Sf9 membrane polyspecificity reagent, FACS + sequencing; frameworks hold sequencing errors
measurement-kind: polyreactivity (PSR sort gate)

Take a look at these entries with their results.
QVQLVESGGGLFQAGGSLRLSCAASGFTFPAYNMGWYRQAPRKEMEMVAAITSSGGNTYYADSVKGRFTISRHNAKNTVYLQMNSLKPEDTAVYYWATFSVRWPSNDHVRYDYWGHGTQVTVSS ... low polyreactivity
QVQLVESGGGLVQAGGSLRLSCAASGFIFRYNAMGWYRQRPGKERELVAVITSGGRTYYADSVKGRFTISRDNAKNTVYLQMNSLKPEDTAFYYCNADSRHRRNYDYWGQGTQVTVSS ... high polyreactivity
QVQLEESGGGLVQEGGSLRLSSAASGFTFGKYAMGSYRQAPGKEMEFVASISSSGARTYYADSVKGRFTISRDNAKNTVYLQKNSLKPEDTAVYYCAAAYGRYYYTYDYWGQGTQVTVSS ... high polyreactivity
QVQLVESCGGLVQAGGSLRLSCAASGRIFLYNAMGWYRQAPGKERELVAVISRNGGSTYYADSVKGRFTISRDNAKNTVYLQMNSLKPEDTAVYYCNRYDRLAGRTTYDYWGQGSQVTVSS ... high polyreactivity

Okay, now this sequence:
Indicate its recorded polyreactivity (PSR sort gate); the sequence in question is QVQLVESGGGLVQAGGSLPLSCAASGRIFVVYAMGWYRQAPGKERDLVAGISWTDGRTYYADSVKGRFTISRDNAKNTVYLLMNSLKPEDTAVYYCNKARTSQYHHTYWRTYGYWGQGTQVTLSS
low polyreactivity

----------
- measurement-notes: yeast display, Sf9 membrane polyspecificity reagent, FACS + sequencing; frameworks hold sequencing errors
measurement-kind: polyreactivity (PSR sort gate)

Some sequences with known polyreactivity (PSR sort gate) results, for comparison:
QVQLVESGGGLVQAGGSLRLSCAASGFIFVKYDMGWYRQAHGKERELVAAITTSGTGTFYADSVKGRFTISRDNAKNTVDLQMNSLKPEDTAVYYCNSLGHPGDDWGQGTQVTVSS ... low polyreactivity
QVQLVESGGGLVQAGGSLRLSCAASGRTIASYAMGWYRQAPGKERELVAAITSGGSTYYADSVKGRFTISRDNAKNTVYLQMNSLKPEDTAVYYCARIHAIWRGYDYWGQGTQVTVSS ... low polyreactivity
QVQLVESGGGLVQAGGSLRLTCAASGRIFTSYAMGWYRQAPGKERELVATITGSTASTYYADSVKGRFTISRDNAKYTVYLQMNSLKPEDTAVYYCAARSVGKRGYDYWGQCTQVTVSS ... high polyreactivity
QVQLVESGGGLVQAGGSLRLSCAASRFIFGAYTMGWYRQAPGKERELVAAISWSGDSTYYADSVKGRFTISRDNAKNTVYLQMNSLKPEDTAVYYCAAVWYWSGFDYWGQGTQVTVSS ... high polyreactivity
QVQLVESGGGLVQAGGSLRLICAASGSIFLLYDMGWYRQAPGKERELVAAITWSGGSTYYADSVKGRFTISRDNAKNTVYLQMNSLKPEDTAVYYCAADEPYPTAYEYWGQGTQVTVSS ... low polyreactivity

Please state, for each entry, its recorded polyreactivity (PSR sort gate).
1. QVQLVESGGGLVQAGGSLRLSCAASGFIFWVNAMGWYRKAPGKERELVAAISSSYGSTYYADYVKGRFSISRDNAKNTVYLQMNRLKPEDTAVCYSAARWLGHFYPFFLQGLSGFDYWGQGTHVTVSS
2. QVQLVESGGAIVQAGGSLRLICAASGSIFYIYAMGWYRQAPGKERELVASITFSGDITYYADSVKGRFTISRDNAKYTVYLQMNSLKPEDTAVYYCAADYHEQSYAVTYDYWGQGTKVTVSS
3. QVQLVESGGGLVQAGVSLRLSCAASGIFRRYAMGWYIQAPGKERELVAAISSNGGSTYYADSVKGRFTISRDNAKNTVYLQMNSLKPEDTAVYYCNADVYVWNYYYWGQGTQVTVSS
4. QVQLVESRGGLVQAGGSLRLSCAASGFTFYSNAMGWYRQAPGKERELVAAIAKRGGSTYYADSVKGRFTISRDNAKNTVYLQMISLKPEDTAVYYCNKDYYARKYDYWGQGTLVTVSS
5. QVHLVESGGGLVQARGSLRLSCAASGSTIYSYARGWYRQAPGKERELVAAINRSAGSTYYADSVKGRFTISRDNAKNTVYLQMTSLKPEDTAVYYCAAYASRSYGDWGQGTQVTVSS
6. QVQLVESGGGLVQAGVSLRLSCAASGLIFVFYAMGWYRQAPGKERELVAAISRSGTSTYADSVKGRFTISRDNAKNTVYLQMNSLKPADTAVYYCNAYRYYSPYGYWGQGTQVTVSS
7. QVQLVESGGGLVQAGGSLRLICAASGFTIGPYAMGWSRQAPGKERELVAAITIRGGSTYADSVKGRFTISRDNAKNTVYFQMNSLKTEDTAVSYCATVRALEYNYWGQGTQVTVSS
8. QVQLVESGGGLVQAGGSLRLSCAASGFIFGYYTMGWYRQAPGKERELVASISSRGGSTFYADSVKGRFTISRDNAKNTVYLQMNSLKPEDTAVYYCAVRRGVYYYPYYYWGQGTQVTVSS

1. low polyreactivity
2. low polyreactivity
3. high polyreactivity
4. high polyreactivity
5. high polyreactivity
6. low polyreactivity
7. low polyreactivity
8. high polyreactivity
